Origin of the recorded values: paper PMC3602366

Target: MIP-R1 (I. scapularis myoinhibitory peptide receptor 1) (Ixodes scapularis, UniProt L7ZCA0)
Test: cell-based
Where no end group is shown, it is not given here.
Examples of substances with documented EC50 follow.
METRIC: EC50 (nM)

{"columns": ["SUBSTANCE", "MEASURED"],
 "data": [
  ["ENHWNDLSGYW-NH2 [MIP3]", 15],
  ["GGDWNALSGMW-NH2 [MIP1]", 40],
  ["ASDWNRLSGMW-NH2 [MIP2]", 32]
]}
